assay: fission yeast growth modulation, primary screen, strain 972, OD600, 24 h, no modulator (AID 1090);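 also: basal condition with compound alone and no growth modifier present; test concentration not given here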; conditions: S. pombe 972 growth, higher = more signal, called active from +8 up or from −8 down
The class of a record is decided solely by its measured z-score; consult c1 = under -2, c2 = from -2 up to -0.6, c3 = -0.6 and over

Below, 8 molecules whose answers are already recorded.
C[C@@H]1NC(=O)CC=C[C@@H](C)[C@@H]2C=C[C@H](O)[C@@H](COC(=O)[C@H](C)NC(=O)CC=C[C@@H](C)[C@@H]3C=C[C@H](O)[C@@H](COC1=O)O3)O2: c1
C=C[C@H](OC)[C@@H](OC(=O)Nc1ccc(SC)cc1)c1ccc(O)c(F)c1: c2
CCOC(=O)[C@H]1C/C=C/C[C@H](C(=O)OCC)C(=O)O[C@H]2[C@@H](OC)O[C@H](CO)[C@@H](OC(=O)Nc3ccc(Br)cc3)[C@@H]2OC1=O: c1
Cc1ccc(S[C@]2(C(=O)NC(C)C)CC(=O)N(C3Cc4ccccc4C3)[C@@H]2c2ccc(CO)cc2)cc1: c2
Cc1ccc(S[C@]2(C(=O)NCCCN(C)C)CC(=O)N(C3CCCCC3)[C@@H]2c2ccc(CO)cc2I)cc1: c1
C=C(CCCC)C(=O)CC[C@@H](OC(C)=O)c1ccccc1OCCO: c1
CO[C@@H]1COC(=O)CC=C[C@@H](C)[C@H](OC)COC(=O)CC=C[C@H]1C: c2
C[C@H]1COC(=O)[C@H](Cc2ccccc2)NC(=O)[C@@H](C)COC(=O)[C@H](Cc2ccccc2)NC1=O: c2

Task item: Band of CC1CC/C=C\[C@H]2OC34C=CCN(Cn5nnc6ccccc65)C(=O)[C@H]3N(C(C)CO)C(=O)[C@@H]4C2C(=O)O1 (stereo not given in full) ?
Reply: c3

Task item: Band of COC(=O)C[C@H]1O[C@]2(C(=O)N(Cc3ccccc3)c3ccc(I)cc32)[C@@H](C)[C@@H]1[Si](C)(C)c1ccc(OC)cc1 ?
Reply: c3

Task item: Band of Cc1ccc(S(=O)(=O)c2cc3oc2CC[C@@H](CO)NC(=O)N(C)Cc2cn(nn2)C[C@H](Cc2ccccc2)NC3=O)cc1 ?
Reply: c2

Task item: Band of COCCOC(=O)N1C(=O)[C@@]2(c3ccccc31)[C@H](C(=O)N1CCc3cc(OC)c(OC)cc3C1)[C@H]1C(=O)O[C@H](c3ccccc3)[C@H](c3ccccc3)N1[C@@H]2c1ccccc1OCCO ?
Reply: c3

Task item: Band of COC(=O)C(CC#Cc1ccc2c(c1)[C@]1(C(=O)N2)[C@H](C(=O)N2CCCCCCC2)[C@H]2C(=O)O[C@H](c3ccccc3)[C@H](c3ccccc3)N2[C@@H]1c1ccc(O)cc1)C(=O)OC ?
Reply: c3

Task item: Band of CO[C@@H]1COC(=O)CC=C[C@H](C)COC(=O)[C@H](Cc2ccccc2)NC(=O)CC=C[C@H]1C ?
Reply: c2
